- TARGET_UNDER_TEST: glutathione-S-transferase (GST) tagged LXRbeta LBD (ligand binding domain) (Homo sapiens, UniProt P55055)
- Construct: purchased Invitrogen pv4658
- Sequence (P55055 222-460 limits assumed): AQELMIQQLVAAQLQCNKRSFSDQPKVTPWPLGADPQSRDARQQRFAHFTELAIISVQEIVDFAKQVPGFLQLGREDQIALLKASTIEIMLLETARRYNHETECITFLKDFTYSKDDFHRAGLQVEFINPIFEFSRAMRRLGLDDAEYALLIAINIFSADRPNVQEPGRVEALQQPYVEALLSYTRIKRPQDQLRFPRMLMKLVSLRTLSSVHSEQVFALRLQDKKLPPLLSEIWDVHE
- MEASUREMENT_DESCRIPTION: LanthaScreen TR-FRET Liver X Receptor Coactivator Assay, LXR beta
- Assay type: biochemical
- CONDITION_DETAILS: LXR beta IP, potency (Inflection Point), compound-induced co-activator recruitment, TR-FRET
pEC50: −log10 of the molar value.
Form field: pEC50 (one value per entry).
ASSAY_READOUT: pEC50

| MOLECULE | ASSAY_READOUT | ENDPOINT_RESULT |
| --- | --- | --- |
| CN(C)C(=O)c1ccc(O[C@H]2C[C@@H](CC3CCN(C(=O)[C@](O)(c4ccccc4)C(F)(F)F)CC3)C2)cc1Cl (single isomer, unassigned) [Example 37-1] | pEC50 | 8.00 |
| CN(C)C(=O)c1ccc(OCCCC2CC23CCN(C(=O)C2(c4ccccc4)CCCC2)CC3)cc1Cl (single isomer, unassigned) [Example 14-2] | pEC50 | 7.55 |
| O=C(c1ccc(OCCCCC2CCN(C(=O)C(O)(c3ccccc3)C(F)(F)F)CC2)cc1Cl)N1CCC1 (single isomer, unassigned) [Example 8-1] | pEC50 | 7.48 |
